Test: Kinetic solubility by nephelometry
Type: physicochemical
Conditions: 0.01 M HCl (approx. pH 2.0), concentration range
observed-property: Sol2.0

Check out these entries, answers already filled in.
Asked: Fill in: Sol2.0 of N#Cc1ccc(NC(=O)Nc2ccc(F)c(C(F)(F)F)c2)cc1 [Compd 15] is ___
Given back: <1.6/<1.6 μg/mL

Asked: Same for O=C(Nc1ccc(F)c(C(F)(F)F)c1)Nc1ccc(F)c(C(F)(F)F)c1 [Compd 1]
Given back: <1.6/<1.6 μg/mL

Asked: Same for O=C(Nc1ccnc(C(F)(F)F)c1)Nc1ccnc(C(F)(F)F)c1 [Compd 2]
Given back: 12.5–25/12.5–25 μg/mL

Items follow; give Sol2.0 for each.
1. O=C(Nc1cnccn1)Nc1cnccn1 [Compd 4]
2. NC(=O)c1ccc(NC(=O)Nc2ccc(F)c(C(F)(F)F)c2)cc1 [Compd 13]
3. O=C(Nc1ccc2c(c1)OC(F)(F)O2)Nc1ccc2c(c1)OC(F)(F)O2 [Compd 5]
4. O=C(Nc1cccc(C(=O)O)c1)Nc1ccc(F)c(C(F)(F)F)c1 [Compd 12]
5. O=C(Nc1ccc(F)c(C(F)(F)F)c1)Nc1ccccn1 [Compd 8]

Given back:
1. 6.3–12.5/6.3–12.5 μg/mL
2. 6.3–12.5/6.3–12.5 μg/mL
3. <1.6/<1.6 μg/mL
4. 1.6 to 3.1 µg/mL
5. 1.6 to 3.1 µg/mL
